Test system: SMMC-7721
Assay: Cell cycle arrest in human SMMC7721 cells assessed as accumulation at G2/M phase at 0.25 uM incubated for 48 hrs by propidium iodide staining based flow cytometry (Rvb=16.17%)
Type: functional
Listed next: entries and their corresponding Activity.
A number alone suffices; assume %.

A selection of reference data follows.
COMPOUND	Activity / %
COc1ccc2c(=O)n(C)c(SCc3ccc(C(=O)Nc4ccccc4N)cc3)nc2c1	11.67
CC(=O)Nc1ccc(C(=O)Nc2ccccc2N)cc1 [TACEDINALINE]	7.73

Problem: Specify Activity for `Nc1ccc(F)cc1NC(=O)c1ccc(CNC(=O)/C=C/c2cccnc2)cc1` and stop.
Result: 8.76

Problem: Specify Activity for `COc1ccc2c(=O)n(-c3ccccc3Cl)c(SCc3ccc(C(=O)Nc4ccccc4N)cc3)nc2c1` and stop.
Result: 31.29

Problem: Specify Activity for Nc1ccccc1NC(=O)c1ccc(CNC(=O)OCc2cccnc2)cc1 [ENTINOSTAT] and stop.
Result: 15.43

Problem: Specify Activity for `Cn1c(SCc2ccc(C(=O)Nc3ccccc3N)cc2)nc2cc(Br)ccc2c1=O` and stop.
Result: 18.88

Problem: Specify Activity for `CCn1c(SCc2ccc(/C=C/C(=O)Nc3ccccc3N)cc2)nc2cc(OC)ccc2c1=O` and stop.
Result: 17.67

====

Test system: SMMC-7721
Experiment: Cell cycle arrest in human SMMC7721 cells assessed as accumulation at S phase at 0.25 uM incubated for 48 hrs by propidium iodide staining based flow cytometry (Rvb=6.83%)
Assay type: functional
Listed next: entries and their corresponding Activity.
A number alone suffices; assume %.

Problem: Specify Activity for Nc1ccccc1NC(=O)c1ccc(CNC(=O)OCc2cccnc2)cc1 [ENTINOSTAT] and stop.
Result: 9.47

Problem: Specify Activity for `COc1ccc2c(=O)n(C)c(SCc3ccc(C(=O)Nc4ccccc4N)cc3)nc2c1` and stop.
Result: 22.23

Problem: Specify Activity for `Nc1ccc(F)cc1NC(=O)c1ccc(CNC(=O)/C=C/c2cccnc2)cc1` and stop.
Result: 13.28

Problem: Specify Activity for `COc1ccc2c(=O)n(-c3ccccc3Cl)c(SCc3ccc(C(=O)Nc4ccccc4N)cc3)nc2c1` and stop.
Result: 19.96

Problem: Specify Activity for `CCn1c(SCc2ccc(/C=C/C(=O)Nc3ccccc3N)cc2)nc2cc(OC)ccc2c1=O` and stop.
Result: 20.75

Problem: Specify Activity for `Cn1c(SCc2ccc(C(=O)Nc3ccccc3N)cc2)nc2cc(Br)ccc2c1=O` and stop.
Result: 15.53

Problem: Specify Activity for CC(=O)Nc1ccc(C(=O)Nc2ccccc2N)cc1 [TACEDINALINE] and stop.
Result: 15.37

====

Listed next: entries and their corresponding IC50.
Target: Histone deacetylase 1 (Homo sapiens, UniProt Q13547)
Sequence (Q13547 whole entry): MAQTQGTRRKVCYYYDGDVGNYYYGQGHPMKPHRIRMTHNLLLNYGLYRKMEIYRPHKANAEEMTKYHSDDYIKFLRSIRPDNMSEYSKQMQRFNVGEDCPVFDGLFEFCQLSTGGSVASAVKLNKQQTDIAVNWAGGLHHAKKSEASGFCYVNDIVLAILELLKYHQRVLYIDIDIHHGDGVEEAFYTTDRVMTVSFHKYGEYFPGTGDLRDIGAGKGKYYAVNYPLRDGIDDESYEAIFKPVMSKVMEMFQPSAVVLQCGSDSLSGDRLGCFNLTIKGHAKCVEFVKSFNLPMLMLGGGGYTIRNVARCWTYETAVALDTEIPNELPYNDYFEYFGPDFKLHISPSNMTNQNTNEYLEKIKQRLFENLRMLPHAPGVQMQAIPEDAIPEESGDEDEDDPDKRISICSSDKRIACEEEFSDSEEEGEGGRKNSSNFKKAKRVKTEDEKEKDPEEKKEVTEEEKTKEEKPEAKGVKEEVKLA
Test: Inhibition of human recombinant His-tagged HDAC1 (482 residues) expressed in baculovirus infected insect cells using FLUOR DE LYS SIRT1 as substrate incubated for 10 mins followed by substrate addition and measured after 30 mins by fluorescence method
A number alone suffices; assume nM.

A selection of reference data follows.
SMILES DATA	TEST VALUE
Cn1c(SCc2ccc(C(=O)Nc3ccccc3N)cc2)nc2cc(Br)ccc2c1=O	290
COc1ccc2c(=O)n(C)c(SCc3ccc(C(=O)Nc4ccccc4N)cc3)nc2c1	10
CCn1c(SCc2ccc(/C=C/C(=O)Nc3ccccc3N)cc2)nc2cc(OC)ccc2c1=O	100

Proceeding to the next compound to report its IC50.
Problem: Specify IC50 for `COc1ccc2c(=O)n(-c3ccccc3Cl)c(SCc3ccc(C(=O)Nc4ccccc4N)cc3)nc2c1` and stop.
Result: 380
